Provenance of the data: PubChem BioAssay (NCI)

- Tested on: K-562 leukemia
- MEASUREMENT PROTOCOL: NCI tumour cell line growth inhibition, 48 h
READOUT LABEL: TGI

Below, each entry is followed by its recorded TGI result.
- COMPOUND: "NNC(=O)CC(=O)Nc1ccc(C(=O)O)cc1"
  VALUE MEASURED: "> 100 µM"
- COMPOUND: "CCOC(=O)CC/C(C)=N\\n1c(Cc2ccc(Cl)cc2)n[nH]c1=O"
  VALUE MEASURED: "> 100 µM"

Could you now look at the following compound, please?
Problem: If you can, please state the reported TGI value of CCOC(=O)CCC(NC(=O)N1CCN(c2c(C)nc(C)[nH]c2=O)CC1)C(=O)OCC (stereo not drawn) .
Solution: > 100 µM
